test system: SF-295 CNS; test: NCI tumour cell line growth inhibition, 48 h
Readout Kind: TGI

See these solved cases before continuing.
{"Compound": "COC(NC(=O)Nc1ccccc1C)(C(F)(F)F)C(F)(F)F", "Tested On": "SF-295 CNS", "TGI": "> 100 µM"}
{"Compound": "S=C1SC(=Nc2ccccc2)C(=Nc2ccccc2)N1c1ccc2ccccc2c1", "Tested On": "SF-295 CNS", "TGI": "> 100 µM"}
{"Compound": "O=C(NCCCc1cn[nH]c1)c1ccc(-c2ccncc2)c(C#Cc2ccc(F)cc2)c1", "Tested On": "SF-295 CNS", "TGI": "47.9 µM"}

Which TGI value is on record for `CS(=O)(=O)Nc1cccc(-c2ccc3ncnc(Nc4ccc(F)c(Cl)c4)c3c2)c1` ? 3.08 µM

Which TGI value is on record for `O=C1/C(=C/c2ccc(F)cc2)CN(C(=O)CCN2CCC(=NO)CC2)C/C1=C\c1ccc(F)cc1` ? 4.72 µM

Which TGI value is on record for `COc1ccccc1NC(=O)CC(=O)NN` ? > 100 µM

Which TGI value is on record for `CCN(CC)C(=O)CCN1CC1` ? > 10 µM

Which TGI value is on record for CC1CCC2(OC1)OC1C(O)C3C4CCC5CC(OC6OC(CO)C(OC7OC(CO)C(O)C(OC8OCC(O)C(O)C8O)C7OC7OC(CO)C(O)C(OC8OC(CO)C(O)C(O)C8O)C7O)C(O)C6O)C(O)CC5(C)C4CCC3(C)C1C2C (centres undefined) ? 3.66 µM

Which TGI value is on record for `COc1ccc(/C=C/c2c(C(=O)/C=C/c3ccc(C(F)(F)F)cc3)c(C)nc3ccccc23)cc1` ? 3.28 µM

Which TGI value is on record for `COC(=O)Cn1cnc2c(Cl)nc(Nc3ccccc3)nc21` ? > 100 µM
